Target: Prostaglandin E2 receptor EP2 subtype (Homo sapiens) (UniProt P43116)
Sequence (P43116 whole entry, looked up): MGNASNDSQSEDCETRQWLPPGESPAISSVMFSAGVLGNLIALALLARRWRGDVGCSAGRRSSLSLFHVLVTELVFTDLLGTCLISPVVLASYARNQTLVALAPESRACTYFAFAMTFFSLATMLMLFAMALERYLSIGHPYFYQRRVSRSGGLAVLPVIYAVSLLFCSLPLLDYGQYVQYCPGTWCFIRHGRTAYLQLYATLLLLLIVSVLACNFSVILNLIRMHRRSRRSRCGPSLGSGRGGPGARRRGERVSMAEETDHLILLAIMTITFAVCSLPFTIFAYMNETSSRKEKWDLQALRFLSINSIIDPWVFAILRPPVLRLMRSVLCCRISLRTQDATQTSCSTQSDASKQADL
Experiment: compounds shifting PGE2 potency at EP2 – cell-based, human EP2, PGE2 EC50 shift, dose response (AID 1421)
Details: EP2-expressing cells, PGE2 EC50 shift by compound; at 20 µM
In all, about 1,300 compounds went through this assay and about 140 (11%) were called active. Not all results are given here. Entries with a potency or affinity are not part of this list.
# PGE2 EC50 with compound listing for each entry below

Compound	PGE2 EC50 with compound
Cn1c(=O)c2c(nc(SCC(=O)N3CCc4ccccc4C3)n2C)n(C)c1=O	0.76 nM (inactive)
CCOC(=O)c1c(NC(=O)CN2C(=O)NC3(CCCCCC3)C2=O)sc(C)c1-c1ccc(C)cc1	0.74 nM (inactive)
COc1cc2ccccc2cc1C(=O)NC(=S)Nc1cc(C(=O)O)ccc1C	58.1 nM (inactive)
Cc1ccc2c(c1)N(S(=O)(=O)c1ccc(F)cc1)C(C(C)(C)C)CO2 (configuration not stated)	0.45 nM (inactive)
O=c1c2oc3ccccc3c2[nH]c(=S)n1-c1ccccc1	1.48 nM (inactive)

Next compound, please.
Return PGE2 EC50 with compound for the following compound: O=C(O)c1nc2nc(Cl)c(Cl)nc2[nH]1
0.87 nM (inactive)

###

Target: Prostaglandin E2 receptor EP2 subtype (Homo sapiens)
Assay: compounds shifting PGE2 potency at EP2 – cell-based, human EP2, PGE2 EC50 shift, dose response (AID 1421)
Conditions: EP2-expressing cells, PGE2 EC50 shift by compound; at 20 µM
Out of some 1,300 compounds screened, about 140 (11%) were called active. A selection follows. Potency and affinity values are given separately.
# PGE2 EC50 with compound listing for each entry below

Reference set (5 entries):
Molecule	Test system	PGE2 EC50 with compound
Cc1ccccc1NC(=S)N(Cc1ccco1)C(C)c1cccs1 (stereo unspecified)	Prostaglandin E2 receptor EP2 subtype (Homo sapiens)	400 pM (inactive)
CCOC(=O)c1c(NC(=O)c2cccnc2)sc(C)c1C	Prostaglandin E2 receptor EP2 subtype (Homo sapiens)	310 pM (inactive)
C/C(=N\N(Cc1ccccc1)c1ccccc1)c1cccnc1	Prostaglandin E2 receptor EP2 subtype (Homo sapiens)	370 pM (inactive)
C=CCOc1ccccc1CNc1ccccc1C	Prostaglandin E2 receptor EP2 subtype (Homo sapiens)	320 pM (inactive)
O=C(Nc1ccccc1)c1nn(-c2cccc(C(F)(F)F)c2)ccc1=O	Prostaglandin E2 receptor EP2 subtype (Homo sapiens)	100 pM (inactive)

# return PGE2 EC50 with compound of CC(C)(C)N(Cc1ccccc1)C(=O)c1ccc(Br)o1 (system: Prostaglandin E2 receptor EP2 subtype (Homo sapiens))
510 pM (inactive)

# return PGE2 EC50 with compound of Cc1cccc(Cn2c(=O)n(Cc3ccco3)c(=O)c3ccccc32)c1 (system: Prostaglandin E2 receptor EP2 subtype (Homo sapiens))
310 pM (inactive)

# return PGE2 EC50 with compound of COC(=O)c1c(NC(=O)c2ccccc2N(C)S(=O)(=O)c2ccccc2)sc2c1CCCC2 (system: Prostaglandin E2 receptor EP2 subtype (Homo sapiens))
380 pM (inactive)

# return PGE2 EC50 with compound of C=CCn1c(CCc2cc(C(C)(C)C)c(O)c(C(C)(C)C)c2)n[nH]c1=S (system: Prostaglandin E2 receptor EP2 subtype (Homo sapiens))
580 pM (inactive)

# return PGE2 EC50 with compound of CCOC(=O)C1CCN(c2c(C(=O)c3ccccc3)cnc3ccc(Cl)cc23)CC1 (system: Prostaglandin E2 receptor EP2 subtype (Homo sapiens))
390 pM (inactive)

# return PGE2 EC50 with compound of Cc1ccc(Cl)cc1NC(=S)N(Cc1ccco1)C(C)c1cccs1 (stereo unspecified) (system: Prostaglandin E2 receptor EP2 subtype (Homo sapiens))
260 pM (inactive)

# return PGE2 EC50 with compound of COC(=O)c1c(NC(=S)NN2CCOCC2)sc2c1CCCC2 (system: Prostaglandin E2 receptor EP2 subtype (Homo sapiens))
390 pM (inactive)

# return PGE2 EC50 with compound of COc1cc2ccccc2cc1C(=O)NC(=S)Nc1cccc(C(=O)O)c1 (system: Prostaglandin E2 receptor EP2 subtype (Homo sapiens))
6940 pM (inactive)
